Attribution: ChEMBL document CHEMBL1909512

Test: Oral bioavailability in rat at 10 mg/kg
Assay type: ADME, organism-based
Conditions: in vivo
I'd appreciate it if you could supply bioavailability values for the items below.
Unit % implied. Number only.

Q: Reported bioavailability, molecule Cc1ccc2c(NC3CC3)noc2c1-c1ccc2c(c1)NC(=O)C21CCOCC1 : ____
Ans: 6

Q: Reported bioavailability, molecule Cc1ccc2c(N)noc2c1-c1ccc2c(c1)NC(=O)C21CCOCC1 : ____
Ans: 8

Q: Reported bioavailability, molecule Cc1nnc(-c2ccc(C)c(-c3ccc4c(c3)NC(=O)C43CCOCC3)c2)[nH]1 : ____
Ans: 29

Q: Reported bioavailability, molecule Cc1nnc(-c2ccc(C)c(-c3ccc4c(c3)NC(=O)C43CCN(S(C)(=O)=O)CC3)c2)[nH]1 : ____
Ans: 13
